test system: ChaGo-K-1; assay: relative viability (nuclei count vs DMSO), 5 days (fraction); higher = more cells survive; details: first compound 1 µM
measured.parameter: relative viability
Just the number, please, no unit after it.

Quick one: relative viability for NC(=O)Nc1cc(-c2cccc(F)c2)sc1C(=O)N[C@H]1CCCNC1 [AZD7762] + CC(C)C[C@H](NC(=O)[C@H](Cc1ccccc1)NC(=O)c1cnccn1)B(O)O [Bortezomib] (partner 0.002 µM) ?
0.865

Try the compound NC(=O)Nc1cc(-c2cccc(F)c2)sc1C(=O)N[C@H]1CCCNC1 [AZD7762] + CC(=O)Nc1cccc(-n2c(=O)n(C3CC3)c(=O)c3c(Nc4ccc(I)cc4F)n(C)c(=O)c(C)c32)c1 [Trametinib] (partner 0.02 µM)
0.958

Try the compound NC(=O)Nc1cc(-c2cccc(F)c2)sc1C(=O)N[C@H]1CCCNC1 [AZD7762] + O=C(CCCCCCC(=O)Nc1ccccc1)NO [Vorinostat] (partner 1 µM)
0.793

Try the compound NC(=O)Nc1cc(-c2cccc(F)c2)sc1C(=O)N[C@H]1CCCNC1 [AZD7762] + CC1(C)CCC(c2ccc(Cl)cc2)=C(CN2CCN(c3ccc(C(=O)NS(=O)(=O)c4ccc(N[C@H](CCN5CCOCC5)CSc5ccccc5)c(S(=O)(=O)C(F)(F)F)c4)cc3)CC2)C1 [Navitoclax] (partner 0.5 µM)
0.664

Try the compound NC(=O)Nc1cc(-c2cccc(F)c2)sc1C(=O)N[C@H]1CCCNC1 [AZD7762] + Cc1cc(Nc2cc(N3CCN(C)CC3)nc(Sc3ccc(NC(=O)C4CC4)cc3)n2)n[nH]1 [Tozasertib] (partner 0.1 µM)
0.227
